subject.of.test: sim3-GFP (Arabidopsis thaliana) (UniProt P93002)
Sequence (P93002 other isoform, or with tags, fused parts or gaps): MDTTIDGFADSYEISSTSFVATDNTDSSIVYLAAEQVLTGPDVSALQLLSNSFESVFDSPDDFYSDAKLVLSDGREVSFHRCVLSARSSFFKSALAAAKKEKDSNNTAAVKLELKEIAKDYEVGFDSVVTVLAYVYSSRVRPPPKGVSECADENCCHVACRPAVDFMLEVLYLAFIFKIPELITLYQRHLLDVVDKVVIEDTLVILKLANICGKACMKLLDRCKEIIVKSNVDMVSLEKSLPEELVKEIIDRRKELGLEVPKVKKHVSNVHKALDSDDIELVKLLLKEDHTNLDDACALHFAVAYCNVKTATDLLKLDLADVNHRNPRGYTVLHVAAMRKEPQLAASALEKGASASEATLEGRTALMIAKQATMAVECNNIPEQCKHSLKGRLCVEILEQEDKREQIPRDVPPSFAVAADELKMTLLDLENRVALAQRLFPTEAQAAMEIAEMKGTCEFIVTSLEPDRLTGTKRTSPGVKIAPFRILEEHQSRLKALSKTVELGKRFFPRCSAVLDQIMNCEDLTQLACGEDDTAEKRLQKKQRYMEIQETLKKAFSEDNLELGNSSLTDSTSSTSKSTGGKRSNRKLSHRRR
protocol.summary: sim3-GFP IP, LC-MS/MS
Exercise: for every item that follows, state its recorded Normalized Fold Change: SA vs Mock.
// return numeric value only (unit: fold, not printed)

*Q* Which Normalized Fold Change: SA vs Mock reading was recorded for the binder ARD3, acireductone dioxygenase 3 (protein, UniProt Q8W108 1-199, looked up) Acireductone dioxygenase 3: MGEVVKDGREEVIQAWYMDDSEEDQRLPHHKDPKEFLSLDKLAELGVLSWRLDADNYETDEDLKKIRESRGYSYMDFCEVCPEKLPNYEVKVKSFFEEHLHTDEEIRYCVAGSGYFDVRDRNEAWIRVWVKKGGMIVLPAGIYHRFTVDSDNYIKAMRLFVGEPVWTPYNRPHDHLPARKEYIDNFVKVNEGGVIDASA ?
*A* 8.57

*Q* Which Normalized Fold Change: SA vs Mock reading was recorded for the binder UBC36, ubiquitin-conjugating enzyme 36 (protein, UniProt Q9FZ48 1-153, looked up) Ubiquitin-conjugating enzyme E2 36: MANSNLPRRIIKETQRLLSEPAPGISASPSEENMRYFNVMILGPTQSPYEGGVFKLELFLPEEYPMAAPKVRFLTKIYHPNIDKLGRICLDILKDKWSPALQIRTVLLSIQALLSAPNPDDPLSENIAKHWKSNEAEAVETAKEWTRLYASGA ?
*A* 3.95

*Q* Which Normalized Fold Change: SA vs Mock reading was recorded for the binder LURP1, Protein of unknown function (DUF567) (protein, UniProt Q9ZQR8 1-207, looked up) Protein LURP1: MQQPCVIVGSKYCSPNPVGLAIVRKVMKITDGNFVITSADGKLLFKVKDPLFSLHGKRILLDCSGAKVLTLRGKMMTMHDRWQVFRGGSTEEGALLYTVKRSSMIQLAPKLEVFLANNVEEKICDFKVKGAWLDDSCVVYAGDSDTIIAHMCGKQTMRGFFFGKDHFSVTVDKNVDYAFIASLIVILVEIEKAGFITKMTTQMIIGF ?
*A* 4.63

*Q* Which Normalized Fold Change: SA vs Mock reading was recorded for the binder SINAT2, seven in absentia of Arabidopsis 2 (protein, UniProt Q9M2P4 1-308, looked up) E3 ubiquitin-protein ligase SINAT2: MAPGGSALKEVMESNSTGMDYEVKTAKVEVNNNKPTKPGSAGIGKYGIHSNNGVYELLECPVCTNLMYPPIHQCPNGHTLCSNCKLRVQNTCPTCRYELGNIRCLALEKVAESLEVPCRYQNLGCHDIFPYYSKLKHEQHCRFRPYTCPYAGSECSVTGDIPTLVVHLKDDHKVDMHDGCTFNHRYVKSNPHEVENATWMLTVFNCFGRQFCLHFEAFQLGMAPVYMAFLRFMGDENEAKKFSYSLEVGAHGRKLTWQGIPRSIRDSHRKVRDSQDGLIIPRNLALYFSGGDRQELKLRVTGRIWKEE ?
*A* 2.99

*Q* Which Normalized Fold Change: SA vs Mock reading was recorded for the binder TCH4, XTH22, Xyloglucan endotransglucosylase/hydrolase family protein (protein, UniProt Q38857 22-284, looked up) Xyloglucan endotransglucosylase/hydrolase protein 22: NFQRDVEITWGDGRGQIKNNGELLTLSLDKSSGSGFQSKNEYLFGKVSMQMKLVPGNSAGTVTTLYLKSPGTTWDEIDFEFLGNSSGEPYTLHTNVYTQGKGDKEQQFKLWFDPTANFHTYTILWNPQRIIFTVDGTPIREFKNMESLGTLFPKNKPMRMYSSLWNADDWATRGGLVKTDWSKAPFTASYRGFQQEACVWSNGKSSCPNASKQGTTTGSWLSQELDSTAQQRMRWVQRNYMIYNYCTDAKRFPQGLPKECLAA ?
*A* 102

Source: patent US20230227838A1
